Molecular target: T1, 4H687-bA
T1 chain: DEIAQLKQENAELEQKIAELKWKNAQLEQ
Experiment: two-hybrid library CCNG1;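 also: natural log of median RNA to DNA barcode read ratio; higher means stronger binding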
Metric name: interaction score

1. DKIAQLEQKNAELKQEIAELEWKNAQLEQ [4H2503-bA] | 1.12
2. DENAQLEQENAELEQKIAELKWEIAQLEQ [4H1193-bA] | -0.956
3. DKIAQLKQEIAELEQEIAELKWKNAQLKQ [4H2576-bA] | -0.678

P. DKNAQLEQEIAELKQKNAELEWKIAQLEQ [4H3189-bA]
Q. DEIAQLKQENAELEQKIAELKWKNAQLEQ [4H687-bA]
R. DKNAQLKQENAELKQEIAELEWKIAQLKQ [4H3782-bA]
Arrange items by their interaction score values in increasing order. Please list the labels according to the requested order.
Q, P, R
(Q: -1.03, P: -0.444, R: 0.572)

I. DEIAQLKQEIAELKQENAELKWKNAQLEQ [4H607-bA]
II. DENAQLKQKIAELEQKIAELEWENAQLKQ [4H1828-bA]
III. DENAQLEQKIAELKQENAELKWEIAQLEQ [4H1369-bA]
IV. DEIAQLKQEIAELEQKNAELEWKNAQLKQ [4H568-bA]
List from greatest to least interaction score. Please list the labels according to the requested order.
II, III, IV, I
(II: -0.0353, III: -0.0949, IV: -0.587, I: -0.84)
